Task for the reader: assign each of the following binders its reported pIC50.
- target: T1, human TIGIT expressed on cells (human, UniProt Q495A1 22-244)
- T1 construct: whole, on cells; on Jurkat E6.1 cells transduced with human TIGIT, on Promega TIGIT Effector cells or on human primary T cells; the assay field says which; also called hTIGIT; Jurkat-hTIGIT
- T1 sequence (looked up): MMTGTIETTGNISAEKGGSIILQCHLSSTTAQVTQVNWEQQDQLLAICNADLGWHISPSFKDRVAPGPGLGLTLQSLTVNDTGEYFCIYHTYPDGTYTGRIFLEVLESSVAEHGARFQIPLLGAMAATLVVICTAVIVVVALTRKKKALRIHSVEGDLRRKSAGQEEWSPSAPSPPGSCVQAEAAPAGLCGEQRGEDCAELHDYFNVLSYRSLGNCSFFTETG
- assay_overview: flow cytometry, competition with CD155-His (15 ug/ml) on Jurkat-hTIGIT
Scale for pIC50: -log10 of concentration given in mol/L; no unit attached.

So for TIG1 (comparative anti-TIGIT antibody, human IgG1) (antibody, V domains shown, from WO2017/152088; made in HEK cells as human IgG1) VH: DVQLVESGGGLVQPGGSRKLSCAASGFTFSNFGMHWVRQAPEKGLEWVAFISSGSSSIYYADTVKGRFTISRDNPKNTLFLQMTSLRSEDTAMYYCARMRLDYYAMDYWGQGTSVTVSS VL: DVQITQSPSYLAASPGETITINCRASKSISKYLAWYQEKPGKTNKLLIYSGSTLQSGIPSRFSGSGSGTDFTLTISSLEPEDFAMYYCQQHNEYPWTFGGGTKLEIK , the logged pIC50 turned out to be 10.22

So for 31C6 (MEB125.31C6.A1.205 VH4/VL1; comparative anti-TIGIT antibody, human IgG1) (antibody, V domains shown, from WO2016/028656; made in HEK cells as human IgG1; also called 3106 (as the text prints it)) VH: EVQLVQSGAEVKKPGASVKVSCKASGYTFSSYVMHWVRQAPGQGLEWIGYIDPYNDGAKYAQKFQGRVTLTSDKSTSTVYMELSSLRSEDTAVYYCARGGPYGWYFDVWGQGTTVTVSS VL: DIQMTQSPSSLSASVGDRVTITCRASEHIYSYLSWYQQKPGKAPKLLIYNAKTLAEGVPSRFSGSGSGTDFTLTISSLQPEDFATYYCQHHFGSPLTFGQGTRLEIK , the logged pIC50 turned out to be 10.15

So for 22G2 (comparative anti-TIGIT antibody, human IgG1) (antibody, V domains shown, from WO2016/106302; made in HEK cells as human IgG1) VH: QVHLQESGPGLVKPSETLSLTCTVSGGSVSSGIYYWSWIRQPPGKGLEWIGYIYYSGSTNYNPSLKSRVTISVDTSKNQFSLKLSSVTAADTAVYYCARDYYVSGNYYNVDYYFFGVDVWGQGTTVTVSS VL: EIVLTQSPATLSLSPGERATLSCRASQSVSSYLAWYQQKPGQAPRLLIYDASNRATGIPARFSGSGSGTDFTLTISSLEPEDFAVYYCQQRSNWPPLFTFGPGTKVDIK , the logged pIC50 turned out to be 10.05

So for 313M32 (comparative anti-TIGIT antibody, human IgG1) (antibody, V domains shown, from WO2016/191643; made in HEK cells as human IgG1; the VL as printed ends at ...TFG (FR4 not complete); also called 313M2) VH: QVQLQESGPGLVKPSETLSLTCAVSGYSITSDYAWNWIRQPPGKGLEWIGYISYSGSTSYNPSLRSRVTISRDTSKNQFFLKLSSVTAADTAVYYCARRQVGLGFAYWGQGTLVTVSS VL: DIQMTQSPSSLSASVGDRVTITCKASQDVSTAVAWYQQKPGKAPKLLIYSASYRYTGVPSRFSGSGSGTDFTFTISSLQPEDIATYYCQQHYSTPWTFG , the logged pIC50 turned out to be 9.19

Attribution: patent US20200407445A1
